Test: AGP1-GFP expression modulators, hit retest, confirmation, cell-based, flow cytometry, S. cerevisiae, cherry picks (AID 2273);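 further: median GFP channel fluorescence over the whole cell population gate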
Settings: S. cerevisiae AGP1-GFP strain, 3 h, at 10 µM
quantity measured: GFP response, % of DMSO (%)
Expressed in %, but write only the number.

Recorded results for 5 compounds are shown here.
compound | GFP response, % of DMSO (%)
CCC1CCCCN1S(=O)(=O)c1ccc(C(=O)Nc2nnc(-c3ccccc3Cl)o2)cc1 (stereo unspecified) | 101
CC(=O)Nc1ccc(Nc2cc(C)nc3c(-c4ccc(Cl)cc4)c(C)nn23)cc1 | 95
O=C(O)c1ccccc1C(=O)Nc1ccccc1 | 104
Cc1nn2c(NCc3ccccn3)c3c(nc2c1-c1ccccc1)CCC3 | 103
Cc1cc(OCc2ccc(C(=O)NN=C3CCCC3)cc2)ccc1Cl | 101

Q. For the compound CCn1c2ccccc2c2cc(/C=N/n3cn[nH]c3=S)ccc21 , give its reported GFP response, % of DMSO.
A. 94.3

Q. For the compound COc1ccc(CN2CCSc3sccc3C2=O)cc1 , give its reported GFP response, % of DMSO.
A. 97.3

Q. For the compound Cc1ccc2c(c1)/C(=C/c1ccc(F)cc1)C(=O)N2 , give its reported GFP response, % of DMSO.
A. 98.4

---

Test: LAP4-GFP expression modulators in yeast, confirmation, cell-based, cherry picks, flow cytometry, mother/daughter gates (AID 2271);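 further: ratio of sample to DMSO plate mean so 100% equals DMSO level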
Conditions: S. cerevisiae LAP4-GFP strain, 3 h, at 10 µM, 100 means same as DMSO control
The source made the active and inactive calls.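 Rule for the calls: active = GFP response above 150% of the DMSO control; inconclusive = fewer than 70 events counted in any yeast strain; inactive = the rest.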
Write down the outcome that applies. Available outcomes: 1 (active), 0 (inactive)

compound | class name
Cc1nn2c(N3CCN(C(=O)c4ccco4)CC3)cc(C(C)(C)C)nc2c1-c1ccccc1 | 0
CCOc1ccc(N2C(=O)CC(SCCN)C2=O)cc1 (centres undefined) | 0
CC1=NNC(=O)/C1=C\c1cn(-c2ccccc2)nc1-c1ccc(Cl)cc1 | 0
Cc1cccc(/C(N)=N/OC(=O)C23CC4CC(CC(C4)C2)C3)c1 | 0
CCOC(=O)c1ccccc1NC(=O)c1c(O)c2ccccc2n(CC)c1=O | 0

Q. Field: outcome | Entry: O=c1[nH]c2c(=O)[nH]cnc2nc1-c1ccccc1
A. 0

Q. Field: outcome | Entry: Cc1ccccc1N1C(=O)C(Cl)=C(N2CCN(c3ccccc3)CC2)C1=O
A. 0

Q. Field: outcome | Entry: CCn1c(=O)c(C(=O)NCc2ccc(OC)c(OC)c2)c(O)c2ccccc21
A. 0

Q. Field: outcome | Entry: O=C(O)COc1c(-c2ccc(Cl)cc2)oc2ccccc2c1=O
A. 0

Q. Field: outcome | Entry: O=c1[nH]n(Cc2ccccc2)c2ccccc12
A. 0

Q. Field: outcome | Entry: Cc1ccc(C(=O)NNC(=S)NC(=O)COc2ccccc2)cc1
A. 1

Q. Field: outcome | Entry: Cc1ncc2c(n1)-c1cc(F)ccc1SC2
A. 0

Q. Field: outcome | Entry: O=C(OCC(=O)N1CCN(C(=O)c2ccco2)CC1)c1cc(-c2cccc(Br)c2)nc2ccccc12
A. 0

Q. Field: outcome | Entry: COc1cc(/C=C2\N=C(c3ccccc3)OC2=O)ccc1OC(C)=O
A. 0

---

Target: ATP-binding cassette sub-family B member 6 (Homo sapiens) (UniProt Q9NP58)
Sequence (Q9NP58 whole entry, looked up): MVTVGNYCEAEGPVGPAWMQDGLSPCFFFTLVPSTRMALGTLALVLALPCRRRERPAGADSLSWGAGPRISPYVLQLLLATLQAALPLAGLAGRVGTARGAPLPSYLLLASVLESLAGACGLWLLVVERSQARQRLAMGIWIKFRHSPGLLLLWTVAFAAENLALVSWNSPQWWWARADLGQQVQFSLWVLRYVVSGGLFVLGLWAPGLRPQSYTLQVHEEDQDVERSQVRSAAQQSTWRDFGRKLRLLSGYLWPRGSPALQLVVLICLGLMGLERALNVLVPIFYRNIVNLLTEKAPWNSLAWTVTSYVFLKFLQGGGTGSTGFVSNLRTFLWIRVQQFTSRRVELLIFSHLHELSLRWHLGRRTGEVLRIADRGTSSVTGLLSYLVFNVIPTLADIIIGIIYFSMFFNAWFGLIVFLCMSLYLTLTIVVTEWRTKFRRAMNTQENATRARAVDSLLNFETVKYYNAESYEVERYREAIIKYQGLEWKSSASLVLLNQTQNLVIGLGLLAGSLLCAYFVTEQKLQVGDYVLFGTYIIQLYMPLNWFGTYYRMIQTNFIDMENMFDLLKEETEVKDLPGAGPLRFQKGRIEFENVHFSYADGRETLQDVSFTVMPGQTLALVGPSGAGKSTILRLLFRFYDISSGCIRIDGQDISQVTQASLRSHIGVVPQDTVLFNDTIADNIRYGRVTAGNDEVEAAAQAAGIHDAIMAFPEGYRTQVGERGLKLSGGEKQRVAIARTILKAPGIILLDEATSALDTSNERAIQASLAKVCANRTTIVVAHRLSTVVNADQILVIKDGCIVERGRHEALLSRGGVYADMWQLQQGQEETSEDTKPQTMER
Assay: ABCB6 transporter inhibitors, pilot screen, K562-ABCB6 cells, flow cytometry, validation set (AID 588550);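 further: 0% = DMSO wells and 100% = benzethonium chloride 70 µM positive control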
Conditions: K562-ABCB6 porphyrin accumulation, 1 h, at 10 µM, stronger effect = higher value
quantity measured: inhibition (%)
Expressed in %, but write only the number.

compound | readout units | inhibition
CCN(CC)CCNc1ccc(CO)c2sc3ccccc3c(=O)c12 | % | 8
COc1ccc(-c2cc(=O)oc3c(C)c(O)c(CN(C)C)cc23)cc1 | % | 0
CCOc1cccc(N2C(=O)CC(N(CCc3ccc(OC)c(OC)c3)C(=O)CC)C2=O)c1 (stereo not drawn) | % | 5
CCS(=O)(=O)CCn1c([N+](=O)[O-])cnc1C | % | 4
CC(=O)O[C@H]1C(=O)[C@@]2(C)[C@H]([C@H](OC(=O)c3ccccc3)[C@]3(O)C[C@H](OC(=O)[C@H](O)C(NC(=O)c4ccccc4)c4ccccc4)C(C)=C1C3(C)C)[C@]1(OC(C)=O)CO[C@@H]1C[C@@H]2O (stereo partly drawn) | % | 7

Moving on to the next compound.
Q. For the compound Cc1ccc2[nH]c3c(c2c1)CN(C)CC3 , give its reported inhibition.
A. 12

---

Assay: modulators of MEP2-GFP levels in yeast, confirmation, S. cerevisiae, flow cytometry GFP, cherry picks (AID 2272);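 further: ratio of well signal to plate DMSO mean so 100% equals DMSO level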
Conditions: S. cerevisiae MEP2-GFP strain, 3 h, at 10 µM, stronger effect = higher value
Reported GFP response vs DMSO values are given for each entry in this list.
Expressed in %, but write only the number.

Recorded results for 3 molecules are shown here.
molecule | readout units | GFP response vs DMSO
CCOc1ccc(N2C(=O)CC(SCCN)C2=O)cc1 (stereo unspecified) | % | 105
COc1ccc(NC2=C(Cl)C(=O)N(CCc3ccccc3)C2=O)c(OC)c1 | % | 98.8
CSc1nc2ccc(S(=O)(=O)N3CCCC3)cc2s1 | % | 95.7

Q. For the molecule Cn1cnc([N+](=O)[O-])c1S(=O)(=O)c1cccc(Cl)c1 , give its reported GFP response vs DMSO.
A. 103

Q. For the molecule CC(=O)Nc1cccc(/C(C)=N/NC(=O)c2ccccc2Cl)c1 , give its reported GFP response vs DMSO.
A. 100

Q. For the molecule Cc1cc(O)c(C(=O)/C=C/c2ccc(C(C)C)cc2)c(=O)o1 , give its reported GFP response vs DMSO.
A. 96.2

Q. For the molecule COc1ccc2cc(-c3cc(C(=O)O)c4ccccc4n3)ccc2c1 , give its reported GFP response vs DMSO.
A. 107

Q. For the molecule COc1ccc(/C=N/Nc2nc(-c3cccnc3)nc3ccccc23)cc1OC , give its reported GFP response vs DMSO.
A. 137

Q. For the molecule COc1ccccc1CNC(=O)CS(=O)Cc1nc(-c2ccc(OC)c(OC)c2)oc1C (stereo unspecified) , give its reported GFP response vs DMSO.
A. 105

Q. For the molecule Cc1cccn2c(=O)c(/C=C(\C#N)C(=O)NCc3ccco3)c(N3CCCC(C)C3)nc12 (stereo unspecified) , give its reported GFP response vs DMSO.
A. 98.8

Q. For the molecule O=C1C(Cl)=C(Nc2ccccc2O)C(=O)N1c1ccccc1 , give its reported GFP response vs DMSO.
A. 104

Q. For the molecule Cc1cccn2c(=O)c(/C=C(\C#N)C(=O)NCc3ccco3)c(N3CCOCC3)nc12 , give its reported GFP response vs DMSO.
A. 99

Q. For the molecule COc1ccc(NC(=O)COC(=O)c2ccco2)c([N+](=O)[O-])c1 , give its reported GFP response vs DMSO.
A. 108

---

Experiment: modulators of CIT2-GFP expression in yeast, confirmation, S. cerevisiae, GFP fusion, cherry picks, mother/daughter gates (AID 2274)
Conditions: S. cerevisiae CIT2-GFP strain, flow cytometry, 3 h; measured here: daughter cell gate; at 10 µM; stronger effect = higher value
quantity measured: GFP response, % of DMSO (%)
Expressed in %, but write only the number.

Q. For the compound CN(O)/C=c1/ccc2c(n1)C(=O)C=CC=2 , give its reported GFP response, % of DMSO.
A. 150

---

Experiment: modulators of CIT2-GFP expression in yeast, confirmation, S. cerevisiae, GFP fusion, cherry picks, mother/daughter gates (AID 2274)
Details: S. cerevisiae CIT2-GFP strain, flow cytometry, 3 h; measured here: daughter cell gate; at 10 µM; stronger effect = higher value
quantity measured: GFP response, % of DMSO (%)
Expressed in %, but write only the number.

compound | GFP response, % of DMSO (%)
O=C(NCCCSc1ccccc1)c1cc(Br)ccc1O | 99.1
CC(=O)S[C@@H]1CC2=CC(=O)CC[C@]2(C)[C@H]2CC[C@@]3(C)[C@@H](CC[C@@]34CCC(=O)O4)[C@H]12 | 96.5
COc1ccc(N2CCN(C(=O)c3ccc(Br)cc3)CC2)c([N+](=O)[O-])c1 | 82.5

Q. For the compound O=C(CCCCCN1C(=O)c2cccc3cccc(c23)C1=O)N1CCOCC1 , give its reported GFP response, % of DMSO.
A. 101

Q. For the compound Cc1ccc(C)c(Cn2ncc3ccccc32)c1 , give its reported GFP response, % of DMSO.
A. 95.8

---

Assay: modulators of CIT2-GFP expression in yeast, confirmation, S. cerevisiae, GFP fusion, cherry picks, mother/daughter gates (AID 2274)
Conditions: S. cerevisiae CIT2-GFP strain, flow cytometry, 3 h; at 10 µM; stronger effect = higher value
quantity measured: GFP response, % of DMSO (%)
Expressed in %, but write only the number.

Recorded results for 3 compounds are shown here.
compound | readout units | GFP response, % of DMSO
COC(=O)Cc1ccc(OCc2ccc(Cl)nc2)cc1 | % | 95
CS(=O)(=O)N1N=C(c2ccco2)CC1c1ccc(Cl)cc1 (configuration not stated) | % | 101
O=C(C1CCN(Cc2nc(Cc3cccc(F)c3)no2)CC1)N1CCOCC1 | % | 100

Q. For the compound COc1ccc(-n2c(N)c(C(=O)Nc3c(C)n(C)n(-c4ccccc4)c3=O)c3nc4ccccc4nc32)cc1 , give its reported GFP response, % of DMSO.
A. 94.4

Q. For the compound O=c1[nH]c(=O)n([C@H]2C[C@H](O)[C@@H](CO)O2)cc1F , give its reported GFP response, % of DMSO.
A. 93.4

Q. For the compound O=C(Nc1ccc(F)cc1)c1cc2cc(Cl)ccc2[nH]1 , give its reported GFP response, % of DMSO.
A. 99.7

Q. For the compound COc1ccc(N2CCN(C(=O)c3ccc(C)cc3Cl)CC2)cc1 , give its reported GFP response, % of DMSO.
A. 92.6

Q. For the compound CCCn1nc(C(=O)OCC(=O)c2ccc3c(c2)NC(=O)CO3)c2ccccc2c1=O , give its reported GFP response, % of DMSO.
A. 100

Q. For the compound CCN(CC)CCCN(Cc1cc2cc3c(cc2[nH]c1=O)OCO3)C(=S)Nc1ccccc1 , give its reported GFP response, % of DMSO.
A. 126

Q. For the compound O=C(c1cc([N+](=O)[O-])cc([N+](=O)[O-])c1)N(Cc1nnc(-c2ccccc2Cl)o1)C1CC1 , give its reported GFP response, % of DMSO.
A. 107

Q. For the compound Oc1c(CN2CCN(c3ccc(F)cc3)CC2)cc(Cl)c2cccnc12 , give its reported GFP response, % of DMSO.
A. 141

Q. For the compound Cc1ccc(-c2csc(NC(=O)c3ccno3)n2)cc1 , give its reported GFP response, % of DMSO.
A. 100

Q. For the compound Cc1cccc(OCCN2CSC(=S)N(C)C2)c1 , give its reported GFP response, % of DMSO.
A. 131

Q. For the compound CCS(=O)(=O)Nc1cccc(C2=NN(S(C)(=O)=O)C(c3ccccc3)C2)c1 (configuration not stated) , give its reported GFP response, % of DMSO.
A. 111

Q. For the compound Cc1ccc(-c2csc(NC(=O)c3cccs3)n2)cc1 , give its reported GFP response, % of DMSO.
A. 94.4

Q. For the compound COc1cccc(C(=O)/C=C/c2ccc(SC)cc2)c1 , give its reported GFP response, % of DMSO.
A. 99.7

Q. For the compound CCCCOc1cccc(/C=C(\C#N)C(=O)NC2CC2)c1 , give its reported GFP response, % of DMSO.
A. 99.7

Q. For the compound COc1ccc(-c2sc(C(=O)c3ccc(Cl)cc3Cl)cc2CC(=O)O)cc1 , give its reported GFP response, % of DMSO.
A. 104

Q. For the compound CCc1c2ccccc2nn1-c1ccccc1C(=O)C(C)=O , give its reported GFP response, % of DMSO.
A. 98.6

Q. For the compound O=C(O)c1ccc(Sc2ccccn2)c([N+](=O)[O-])c1 , give its reported GFP response, % of DMSO.
A. 99.7

Q. For the compound Cc1ccc(/C(C#N)=C\c2ccc(N3CCOCC3)o2)cc1 , give its reported GFP response, % of DMSO.
A. 98.8

Q. For the compound Oc1ccc(N=Nc2ccccc2)o1 , give its reported GFP response, % of DMSO.
A. 118

Attribution: PubChem BioAssay
